# METHOD DESCRIPTION: Metabolic stability in human liver microsomes (HLM)
# Format: in vitro ADME
# CONDITIONS USED: both sexes, human, pooled human liver microsomes, pH 7.4, 0.50 mg protein per mL
ENDPOINT: half-life at 1 μM (min)
The figure you give is taken to be in min; do not add the unit.

CC[C@@H](C)NC(=O)[C@@H]1C=C2c3cccc4[nH]c(Br)c(c34)C[C@H]2N(C)C1    24.8
CN1C[C@H](C(=O)N(CCF)CCF)C=C2c3cccc4[nH]cc(c34)C[C@H]21    64
C[C@H]1C[C@H](C)N1C(=O)[C@@H]1C=C2c3cccc4[nH]cc(c34)C[C@H]2N(CCCF)C1    20.5
CCCN1C[C@H](C(=O)N2[C@@H](C)C[C@@H]2C)C=C2c3cccc4[nH]c(Br)c(c34)C[C@H]21    5.6

**Q:** Query (compound): C=CCN1C[C@H](C(=O)N2[C@@H](C)C[C@@H]2C)C=C2c3cccc4[nH]cc(c34)C[C@H]21 ; field requested: half-life at 1 μM
**A:** 16.1

**Q:** Query (compound): CCN(CC)C(=O)[C@@H]1C=C2c3cccc4[nH]c(Br)c(c34)C[C@H]2N(CCCF)C1 ; field requested: half-life at 1 μM
**A:** 10.7

**Q:** Query (compound): CCN(CC)C(=O)[C@@H]1C=C2c3cccc4[nH]c(Br)c(c34)C[C@H]2N(CCC(F)(F)F)C1 ; field requested: half-life at 1 μM
**A:** 11.1

----------
# METHOD DESCRIPTION: Metabolic stability in human liver microsomes (HLM)
# Assay type: in vitro ADME
# CONDITIONS USED: 1 μM, 0.50 mg protein per mL
Reported t1/2 values are given for each entry in this list.
The figure you give is taken to be in min; do not add the unit.

CCN(CC)C(=O)[C@@H]1C=C2c3cccc4[nH]cc(c34)C[C@H]2N(C)C1 [LSD, lysergic acid diethylamide, reference compound]    71.6
CCC(CC)NC(=O)[C@@H]1C=C2c3cccc4[nH]cc(c34)C[C@H]2N(C)C1    17.593
CCN(CC)C(=O)[C@@H]1C=C2c3cccc4[nH]cc(c34)C[C@H]2N(CCC(F)(F)F)C1    13.5

Proceed to the following item.
**Q:** Query (compound): CCCN1C[C@H](C(=O)N[C@H](C)CC)C=C2c3cccc4[nH]cc(c34)C[C@H]21 ; field requested: t1/2
**A:** 4.2

----------
# METHOD DESCRIPTION: Metabolic stability in human liver microsomes (HLM)
# Assay type: in vitro ADME
# CONDITIONS USED: both sexes, human, pooled human liver microsomes, pH 7.4, 0.50 mg protein per mL
ENDPOINT: log10(microsomal CLint at 1 μM) (log10 of the value in µL/min/mg)
log10 microsomal CLint at 1 μM, µL/min/mg

C=CCN1C[C@H](C(=O)N2[C@@H](C)C[C@@H]2C)C=C2c3cccc4[nH]cc(c34)C[C@H]21    1.94
CCC[C@@H](C)NC(=O)[C@@H]1C=C2c3cccc4[nH]cc(c34)C[C@H]2N(CCC)C1    2.92
CC[C@@H](C)NC(=O)[C@@H]1C=C2c3cccc4[nH]cc(c34)C[C@H]2N(C)C1    1.33

**Q:** Query (compound): CCN(CC)C(=O)[C@H]1C=C2c3cccc4[nH]cc(c34)C[C@H]2N(CCCF)C1 ; field requested: log10(microsomal CLint at 1 μM)
**A:** 1.91

**Q:** Query (compound): C[C@H]1C[C@H](C)N1C(=O)[C@@H]1C=C2c3cccc4[nH]cc(c34)C[C@H]2N(C)C1 ; field requested: log10(microsomal CLint at 1 μM)
**A:** 1.73

**Q:** Query (compound): CC[C@@H](C)NC(=O)[C@H]1C=C2c3cccc4[nH]cc(c34)C[C@H]2N(C)C1 ; field requested: log10(microsomal CLint at 1 μM)
**A:** 2.10
